# experimentNotes: CCK-8 viability (cytotoxicity) assay
# Type: cell-based
# experimentalParameters: human, WPMY-1 cells (immortalized prostate stromal cells); 10 nM, 72 h; read-out: decrease of viability
observable: cytotoxicity at 72 h, 10 nM (%)
Your answer should be a plain number; it is taken to be in %.

Input: Given the compound "CN1CCN(c2ccc(OC(F)(F)F)c(Nc3ncc4c(n3)-c3c(c(C(N)=O)nn3CCO)CC4)c2)CC1" , what is its reported cytotoxicity at 72 h, 10 nM?
Output: 40
